System: methicillin-resistant S. aureus, ATCC 43300
Method: Minimum inhibitory concentration against MRSA
Type: cell-based
Experimental Context: methicillin-resistant S. aureus, ATCC 43300
Parameter: MIC, MRSA

Notebook: CC(=O)N[C@H]1[C@H](O[C@@H]2c3ccc(c(Cl)c3)Oc3cc4cc(c3O[C@@H]3O[C@H](CO)[C@@H](O)[C@H](O)[C@H]3NC(=O)CCCCCCC(C)C)Oc3ccc(cc3-c3ccc(-c5ccccc5)cc3)C[C@H]3NC(=O)[C@H](N)c5ccc(O)c(c5)Oc5cc(O)cc(c5)[C@H](NC3=O)C(=O)N[C@H]4C(=O)N[C@H]3C(=O)N[C@@H]2C(=O)N[C@H](C(=O)O)c2cc(O)cc(O[C@H]4O[C@H](CO)[C@@H](O)[C@H](O)[C@@H]4O)c2-c2cc3ccc2O)O[C@H](CO)[C@@H](O)[C@@H]1O [Compound 19] , MIC, MRSA read as 4 µg/mL

# compound CC(=O)N[C@H]1[C@H](O[C@@H]2c3ccc(c(Cl)c3)Oc3cc4cc(c3O[C@@H]3O[C@H](CO)[C@@H](O)[C@H](O)[C@H]3NC(=O)CCCCCCC(C)C)Oc3ccc(cc3Cl)C[C@H]3NC(=O)[C@H](N)c5ccc(O)c(c5)Oc5cc(O)c(Br)c(c5)[C@H](NC3=O)C(=O)N[C@H]4C(=O)N[C@H]3C(=O)N[C@@H]2C(=O)N[C@H](C(=O)O)c2cc(O)cc(O[C@H]4O[C@H](CO)[C@@H](O)[C@H](O)[C@@H]4O)c2-c2cc3ccc2O)O[C@H](CO)[C@@H](O)[C@@H]1O [Compound 7] ; its MIC, MRSA = 1 µg/mL

---

Test system: methicillin-resistant S. aureus, ATCC 43300
Method: Minimum inhibitory concentration against MRSA
Assay type: cell-based
Experimental Context: methicillin-resistant S. aureus, ATCC 43300
Parameter: MIC, MRSA (µg/mL)
Respond with the bare value in µg/mL.

MIC, MRSA for CC(=O)N[C@H]1[C@H](O[C@@H]2c3ccc(c(Cl)c3)Oc3cc4cc(c3O[C@@H]3O[C@H](CO)[C@@H](O)[C@H](O)[C@H]3NC(=O)CCCCCCC(C)C)Oc3ccc(cc3Cl)C[C@H]3NC(=O)[C@H](N)c5ccc(O)c(c5)Oc5cc(O)c(-c6ccoc6)c(c5)[C@H](NC3=O)C(=O)N[C@H]4C(=O)N[C@H]3C(=O)N[C@@H]2C(=O)N[C@H](C(=O)O)c2cc(O)cc(O[C@H]4O[C@H](CO)[C@@H](O)[C@H](O)[C@@H]4O)c2-c2cc3ccc2O)O[C@H](CO)[C@@H](O)[C@@H]1O [Compound 14] is 0.25

Sample CC(=O)N[C@H]1[C@H](O[C@@H]2c3ccc(c(Cl)c3)Oc3cc4cc(c3O[C@@H]3O[C@H](CO)[C@@H](O)[C@H](O)[C@H]3NC(=O)CCCCCCC(C)C)Oc3ccc(cc3-c3ccoc3)C[C@H]3NC(=O)[C@H](N)c5ccc(O)c(c5)Oc5cc(O)cc(c5)[C@H](NC3=O)C(=O)N[C@H]4C(=O)N[C@H]3C(=O)N[C@@H]2C(=O)N[C@H](C(=O)O)c2cc(O)cc(O[C@H]4O[C@H](CO)[C@@H](O)[C@H](O)[C@@H]4O)c2-c2cc3ccc2O)O[C@H](CO)[C@@H](O)[C@@H]1O [Compound 18] ; MIC, MRSA observed: 0.25

# MIC, MRSA of CC(=O)N[C@H]1[C@H](O[C@@H]2c3ccc(c(Cl)c3)Oc3cc4cc(c3O[C@@H]3O[C@H](CO)[C@@H](O)[C@H](O)[C@H]3NC(=O)CCCCCCC(C)C)Oc3ccc(cc3-c3ccoc3)C[C@H]3NC(=O)[C@H](N)c5ccc(O)c(c5)Oc5cc(O)cc(c5)[C@H](NC3=O)C(=O)N[C@H]4C(=O)N[C@H]3C(=O)N[C@@H]2C(=O)N[C@H](C(=O)O)c2c(Br)c(O)cc(O[C@H]4O[C@H](CO)[C@@H](O)[C@H](O)[C@@H]4O)c2-c2cc3ccc2O)O[C@H](CO)[C@@H](O)[C@@H]1O [Compound 16] = 0.5

In plain terms, CC(=O)N[C@H]1[C@H](O[C@@H]2c3ccc(c(Cl)c3)Oc3cc4cc(c3O[C@@H]3O[C@H](CO)[C@@H](O)[C@H](O)[C@H]3NC(=O)CCCCCCC(C)C)Oc3ccc(cc3Cl)C[C@H]3NC(=O)[C@H](N)c5ccc(O)c(c5)Oc5cc(O)cc(c5)[C@H](NC3=O)C(=O)N[C@H]4C(=O)N[C@H]3C(=O)N[C@@H]2C(=O)N[C@H](C(=O)O)c2c(Br)c(O)cc(O[C@H]4O[C@H](CO)[C@@H](O)[C@H](O)[C@@H]4O)c2-c2cc3ccc2O)O[C@H](CO)[C@@H](O)[C@@H]1O [Compound 4] has a documented MIC, MRSA of 1
